system tested: T1, hFc-hROR1 (extracellular domain of human ROR1 fused to the Fc domain of human IgG1) (human, UniProt Q01973 30-406)
T1 construct: extracellular domain; also called hFc-ROR1; not shown: Fc domain of human IgG1
T1 sequence (Q01973 30-406): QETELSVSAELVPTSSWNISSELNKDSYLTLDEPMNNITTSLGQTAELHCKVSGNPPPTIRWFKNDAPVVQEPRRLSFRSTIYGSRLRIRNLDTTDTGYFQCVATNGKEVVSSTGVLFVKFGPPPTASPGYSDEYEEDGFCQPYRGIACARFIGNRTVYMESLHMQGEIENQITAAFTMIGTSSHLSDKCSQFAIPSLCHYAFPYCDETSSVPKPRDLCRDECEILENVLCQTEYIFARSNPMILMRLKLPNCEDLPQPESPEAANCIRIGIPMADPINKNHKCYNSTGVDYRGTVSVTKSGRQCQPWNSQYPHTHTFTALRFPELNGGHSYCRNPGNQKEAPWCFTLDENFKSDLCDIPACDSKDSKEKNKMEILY
experiment notes: SPR (Biacore X100); hFc-hROR1 captured by anti-human Fcγ antibody on CM5; Fab as analyte; 1:1 Langmuir fit
Rule: koff of 0.08 s⁻¹ or more gives Condition met; anything lower gives Condition not met.

binder	label class
ERR1-301 chimeric rabbit/human Fab (Fab, V domains shown, Chimeric rabbit/human Fab with His tag, expressed in E. coli (pET11a); lambda light chain) VH: QEQLEESGGGLVTPGGSLTLTCTASGFTISTYHMSWVRQAPGKGLEWIGSIYAGSGSTYYASWVNGRFTISSNTTQNTVSLQMNSLTVADTATYFCARDHPSYGMDLWGPGTLVTVSS VL: SYELTQLPSVSVSLGQTARITCGGNSIGSKAVNWYQQKPGLAPGLLIYDDDERPSGVPDRFSASNSGDTATLTISGAQAEDEADYYCQLWDSSAVAYVFGGGTQLTVTG	Condition met
XBR1-402 chimeric rabbit/human Fab (Fab, V domains shown, Chimeric rabbit/human Fab with His tag, expressed in E. coli (pC3C-His); lambda light chain) VH: QEQQKESGGGLFKPTDTLTLTCTASGFDISSYYMSWVRQAPGNGLEWIGAIGISGNAYYASWAKSRSTITRNTNLNTVTLKMTSLTAADTATYFCARDHPTYGMDLWGPGTLVTVSS VL: SYELTQLPSVSVSLGQTARITCEGNNIGSKAVHWYQQKPGLAPGLLIYDDDERPSGVPDRFSGSNSGDTATLTISGAQAGDEADYYCQVWDSSAYVFGGGTQLTVTG	Condition not met
ERR1-409 chimeric rabbit/human Fab (Fab, V domains shown, Chimeric rabbit/human Fab with His tag, expressed in E. coli (pET11a); lambda light chain) VH: QEQLVESGGRLVTPGGSLTLTCTASGFSLSSYYMGWVRQAPGKGLEWIGTIYGGSGSTWYASWVKGRFTISKTSTAVDLKITSLTTEDTATYFCARSYPGWTTEPYFDIWGPGTLVTVSS VL: QFVLTQPQSVSGSLGQTVSISCNRDSGNIEDYYVHWYQQHPGKAPTTVIYNDDQRPSGVPDRFSGSIDSTSNSASLTITGLLAEDEADYYCLSSDSSAYVFGGGTQLTVTG	Condition not met
ERR1-316 chimeric rabbit/human Fab (Fab, V domains shown, Chimeric rabbit/human Fab with His tag, expressed in E. coli (pET11a); lambda light chain) VH: QEQLEESGGRLVTPGTPLTLTCTASGFFLSSYYVSWVRQAPGKGLEWIGAIGTGGSAYYASWAKSRSTITRNTNLSTVTLKMTSLTAADTATYFCARDHPNYGMDLWGPGTLVTVSS VL: SYELTQLPSVSVSLGQTARITCGGNSIGSKAVNWYQQKPGLAPGLLIYDDDERPSGVPDRFSGSNSGDTATLTISGAQAGDEADYYCQLWDSSTGAYAFGGGTQLTVTG	Condition met

meta.source: patent US20220153839A1
